targetSystem: Sodium-dependent dopamine transporter (Homo sapiens, UniProt Q01959)
Sequence (Q01959 whole entry): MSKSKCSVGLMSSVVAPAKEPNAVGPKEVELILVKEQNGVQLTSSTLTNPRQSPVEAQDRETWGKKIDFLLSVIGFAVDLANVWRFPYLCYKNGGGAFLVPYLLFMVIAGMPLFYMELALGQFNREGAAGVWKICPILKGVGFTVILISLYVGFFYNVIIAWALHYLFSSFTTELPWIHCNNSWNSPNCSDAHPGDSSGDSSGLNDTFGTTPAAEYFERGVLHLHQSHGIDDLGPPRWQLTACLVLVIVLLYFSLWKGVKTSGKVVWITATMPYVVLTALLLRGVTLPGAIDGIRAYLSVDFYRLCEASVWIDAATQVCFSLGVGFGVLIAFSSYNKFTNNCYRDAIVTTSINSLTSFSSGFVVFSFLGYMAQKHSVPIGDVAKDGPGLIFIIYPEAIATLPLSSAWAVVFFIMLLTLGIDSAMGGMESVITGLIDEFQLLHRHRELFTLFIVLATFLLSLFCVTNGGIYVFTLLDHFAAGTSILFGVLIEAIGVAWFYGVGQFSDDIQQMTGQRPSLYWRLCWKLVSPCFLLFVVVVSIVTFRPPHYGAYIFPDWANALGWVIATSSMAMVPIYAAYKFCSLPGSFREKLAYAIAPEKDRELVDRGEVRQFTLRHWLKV
observationType: pIC50
Scale: negative log10 of molar concentration, which is what pIC50 denotes.

Field pIC50 (Sodium-dependent dopamine transporter (Homo sapiens, UniProt Q01959)), entry Cc1ccc2c(=O)[nH]c(-c3ccc(C(C)(C)O)cc3)cn12 : 4.72

====

test: Volume of distribution at steady state in dog
Type: ADME, Canis lupus familiaris
measurementContext: in vivo, read-out: Vdss
observationType: Vd (L/kg)
Supply the numeric figure in L/kg, leaving out any unit text.

Entry under test: Cc1ccc2c(=O)[nH]c(-c3ccc(C(C)(C)O)cc3)cn12 . Its Vd was 2.17

Values compiled from ChEMBL document CHEMBL5226325.
